Data provenance: the EternaBench riboswitch data

- Tested on: MS2 coat protein
- assay: apparent Kd, MS2 coat protein; higher = weaker binding; RNA-MaP array; FMN 200 µM where present
- conditions: ligand present: flavin mononucleotide; designed as: ON switch for flavin mononucleotide
Classify by measured apparent Kd: 1.0 if it is equal to or exceeds 30 nM, 0.0 if it is smaller.

[[record]]
primary_sequence = "CGGUCACAUGAGGAUCACCCAUGUACCUACGCGAUGAAGUCGCAGGAUAUCCAUUACUUUACGUAGGAGAAGGGUGACGCUCGC"
answer_label = 1.0

[[record]]
primary_sequence = "GCGCUUAUACAGAAGGCCAUAUACAUGAGGAUCACCCAUGUUAUUUGGUGGAGGAUAUGUUUUUUAUUACAGGUUGAUGAGCGC"
answer_label = 0.0

[[record]]
primary_sequence = "GGGUACAUGGGAGGAUAUCCUCAUGAGACAUGAGGAUCACCCAUGUAUUAUAAGCCGAAAGGCAAGGAGAAGGCCCAUGUACCG"
answer_label = 0.0

[[record]]
primary_sequence = "GCAAAGCCUGACAUGAGGAUCACCCAUGUUAGAUUGUUAUGUCAGGAUAUUGUCUAGCCACUAGACAAGAAGGGAUGCUUUGCU"
answer_label = 1.0


Q: Threshold query (apparent Kd >= 30 nM) on GUGGUCAGACAUGAGGAUCACCCAUGUGGAAUAAAUAACGGACAGGAUAUAGAAUAUAGGAUAUACUAGAAGGGUUGAUUGGUG
Result: 1.0

Q: Threshold query (apparent Kd >= 30 nM) on GCCCGACAUGAGGAUCACCCAUGUGGGAAACCGCGAGGAUAUCCGGGCCCGAAAGGGCCCGGAGAAGGCGCCGGGC
Result: 0.0

Q: Threshold query (apparent Kd >= 30 nM) on GAACGUGACAUGAGGAUCACCCAUGUUGCCUGAGCCAGGUCGUAGGAUAUCCUGUUGAUUAAUUUGGAGAAGGGCGACUGGGAG
Result: 0.0

Q: Threshold query (apparent Kd >= 30 nM) on UGGUACAUGGGAGGAUAUCCUCAAGAGACAUGAGGAUCACCCAUGUAUUAUAUGCCUCUUGGCAUGGAGAAGGCCCAUGUACCU
Result: 1.0

Q: Threshold query (apparent Kd >= 30 nM) on CUACCUUAUGAGAAGGCGAUCAUGAAACAUGAUCGAGGAUAUCAUGUAAACAUGAGGAUCACCCAUGUAUGGGUAUUAUGGUAU
Result: 0.0

Q: Threshold query (apparent Kd >= 30 nM) on GAAGAACAUGAGGAUCACCCAUGUGAUUCGCAUGUAGGAUAUGGGCACGCGCCCGCGUGUCUAGAAGGACAGGCUA
Result: 1.0

Q: Threshold query (apparent Kd >= 30 nM) on GAUGACAUGAGGAUCACCCAUGUGAUGGUUUGAGGUGGUUACAGAAGGGACGUAUAGUGGUGUGGUCAGGAUAUGUAGAAUCUU
Result: 1.0

Q: Threshold query (apparent Kd >= 30 nM) on GGGUACAUCGGAGGAUAUCAUGUAAAUACAUGAGGAUCACCCAUGUCGUACGAGAGUACGGAGAUUGAGAAGGCCGAUGUACCG
Result: 0.0

Q: Threshold query (apparent Kd >= 30 nM) on GCCAAUAAGAUUGGCACCGGCGCGCAGGAUAUGCUGGCCUACAUGAGGAUCACCCAUGUCUAAAUGCAGAAGGGUGAGCUGAGC
Result: 1.0

Q: Threshold query (apparent Kd >= 30 nM) on AAUGAGACCGCAGGAUAUCCACAUGAGGAUCACCCAUGUUCUCAGACCGGAAGCACGAUCUGCGAGGAGAAGGGCGACCUCAUA
Result: 1.0

Q: Threshold query (apparent Kd >= 30 nM) on AACAAUCUAUCUGAGGAUAUCAUGUCAAAGACAUGAGGAUCACCCAUGUUGCAGGAAACUGCUCAUGAGAAGGCAGAUAGAUUGA
Result: 1.0

Q: Threshold query (apparent Kd >= 30 nM) on UGGAUCAAUACAGGAUAUGGUGACGCACAUGAGGAUCACCCAUGUCCGCAGCGUGCUAAGCACGCCCAGAAGGGUAUUGAUUCG
Result: 1.0
